# test-protocol: chemical genetic growth profiling, strain panel (AID 1159580);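 note: tested at 20 µM; growth read once vehicle control cultures reached saturation at 30 °C; 1 = growth at the plate median or of vehicle wells; lower values mean less growth of the strain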
# measurement-setup: S. cerevisiae deletion strains, growth OD, locus YMR277W, strain FCP1
Hit rate of the full screen: of about 5,500 compounds, about 2,000 (36%) were called active. Roughly 18% stayed inconclusive and do not appear here. Cut-off read from the data, not from the text of the source: active = normalized growth mostly below about 0.91 (no sharp cut-off); inconclusive = no clear call, values can overlap the other calls; inactive = mostly above about 0.92. Some of the results follow.
Log the outcome using a class from 1 (yes) = active, 0 (no) = inactive

Illustrative cases are given below, each with its answer.
# molecule, classification
records = [
    ("Cc1ccc2nc(-c3ccc([N+](=O)[O-])o3)oc(=O)c2c1", "1 (yes)"),
    ("Cc1ccc(OCc2n[nH]c(=S)n2Cc2ccccc2)c2c1CCC2", "0 (no)"),
    ("CN1c2ccccc2C(C)(C)C12C=Cc1cc(O)ccc1O2 (stereo not drawn)", "0 (no)"),
    ("Clc1ccc(N/N=C\\c2sccc2Oc2ccccc2)cc1", "0 (no)"),
    ("O=c1c(-c2ccccc2)c(O)c2cccc3c4c(n1c23)CCCC4", "0 (no)"),
]

input: Check the results log: what was the call for FC(F)(F)c1cc(-c2ccc(Cl)cc2)n[nH]1 ?
output: 0 (no)

input: Check the results log: what was the call for C/C(=N/NC(=O)c1ccc(C(C)(C)C)cc1)c1ccccc1O ?
output: 0 (no)

input: Check the results log: what was the call for OC(CSc1ccccc1)CN1CCN(c2nc(-c3ccccc3)ns2)CC1 (stereo not drawn) ?
output: 0 (no)

input: Check the results log: what was the call for CSc1nnc(COc2ccc(C)c3c2CCC3)n1-c1ccccc1 ?
output: 0 (no)

input: Check the results log: what was the call for CC(C)(C)c1ccc(C(=O)NNC(=S)Nc2ccc(Cl)cc2)cc1 ?
output: 0 (no)

input: Check the results log: what was the call for O=C(Nc1cccnc1)c1cc2c(s1)-c1ccccc1CC2 ?
output: 0 (no)

input: Check the results log: what was the call for O=c1c(-c2ccccc2)c(O)c2cccc3c4ccccc4n1c23 ?
output: 1 (yes)

input: Check the results log: what was the call for COc1cc(N2C(=O)C=CC2=O)cc(OC)c1OC ?
output: 0 (no)

====

# test-protocol: chemical genetic growth profiling, strain panel (AID 1159580);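 note: tested at 20 µM; growth read once vehicle control cultures reached saturation at 30 °C; 1 = growth at the plate median or of vehicle wells; lower values mean less growth of the strain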
# measurement-setup: S. cerevisiae deletion strains, growth OD, locus YBR279W, strain paf1, hits give low values
About 2,000 (36%) of roughly 5,500 compounds were called active. Not shown: some 18% with an inconclusive outcome. Some of the results follow.
measurement-label: normalized growth
Keep the answer to the number alone.

Examples with answers:
# compound, normalized growth
data = [
    ("CC1=NN(c2ccccc2)C(=O)C1", 0.979),
    ("O=c1[nH]cnc2c1ncn2C1O[C@H](CO)[C@@H](O)[C@H]1O (stereo partly specified)", 0.986),
    ("COc1cc(NS(=O)(=O)c2ccc(N)cc2)ncn1", 0.964),
]

input: Give the reported normalized growth for this compound. CN1C(=O)CCS(=O)(=O)C1c1ccc(Cl)cc1 (stereo unspecified)
output: 0.99

input: Give the reported normalized growth for this compound. C[C@]12CCC3C(CC[C@H]4C[C@H](OS(=O)(=O)O)CC[C@]34C)C1CCC2=O (stereo partly specified)
output: 1.03

input: Give the reported normalized growth for this compound. CO[C@H]1C[C@H](O[C@H]2[C@H](C)[C@@H](OC3O[C@H](C)C[C@H](N(C)C)[C@H]3OC(C)=O)[C@@H](C)C[C@]3(CO3)C(=O)[C@H](C)[C@@H](OC(C)=O)[C@@H](C)[C@@H](C)OC(=O)[C@@H]2C)O[C@@H](C)[C@@H]1OC(C)=O (stereo partly specified)
output: 1

input: Give the reported normalized growth for this compound. Cc1cc(=O)n(-c2ccccc2)n1C
output: 0.995

input: Give the reported normalized growth for this compound. CC(=O)OCC(=O)[C@@]12OC3(CCCC3)O[C@@H]1CC1C3CCC4=CC(=O)C=C[C@]4(C)[C@@]3(F)[C@@H](O)C[C@@]12C (stereo partly specified)
output: 1.01

input: Give the reported normalized growth for this compound. O=C1c2ccccc2C(=O)C1c1ccccc1
output: 0.993

input: Give the reported normalized growth for this compound. CN[C@@H]1[C@@H](O[C@H]2O[C@H](CO)[C@@H](N)[C@H](O)[C@H]2O)O[C@H]2C[C@@H](N)[C@H](O[C@H]3[C@H](O)[C@@H](O)[C@H](N)C[C@@H]3N)O[C@@H]2[C@@H]1O
output: 1

input: Give the reported normalized growth for this compound. COc1ccc(C2C(=O)c3ccccc3C2=O)cc1
output: 1.01

input: Give the reported normalized growth for this compound. CCc1cccc2c3c([nH]c12)C(CC)(CC(=O)O)OCC3 (stereo unspecified)
output: 0.987

input: Give the reported normalized growth for this compound. C1CCC(C(CC2CCCCN2)C2CCCCC2)CC1 (stereo unspecified)
output: 0.969

input: Give the reported normalized growth for this compound. NC(N)=NC(N)=Nc1ccccc1
output: 1

input: Give the reported normalized growth for this compound. Cc1cc(C(C)(C)C)cc(C)c1CC1=NCCN1
output: 0.993

input: Give the reported normalized growth for this compound. CC(=O)CC1CCCCN1 (stereo unspecified)
output: 1.03

input: Give the reported normalized growth for this compound. COc1c2ccoc2cc2oc(C)cc(=O)c12
output: 0.995

input: Give the reported normalized growth for this compound. Cc1cc(C(C)(C)C)c(O)c(C)c1CC1=NCCN1
output: 0.993

input: Give the reported normalized growth for this compound. COc1c2occc2c(OC)c2c(=O)cc(C)oc12
output: 0.978

input: Give the reported normalized growth for this compound. Cc1ccc(N(CC2=NCCN2)c2cccc(O)c2)cc1
output: 1.01

input: Give the reported normalized growth for this compound. CC1=CC2C(C(C)C)CCC(C)(O)C2CC1 (stereo unspecified)
output: 0.988

====

# test-protocol: chemical genetic growth profiling, strain panel (AID 1159580);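 note: tested at 20 µM; growth read once vehicle control cultures reached saturation at 30 °C; 1 = growth at the plate median or of vehicle wells; lower values mean less growth of the strain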
# measurement-setup: S. cerevisiae deletion strains, growth OD, locus YER002W, strain NOP16
Among all 5,500 compounds or so, about 2,000 (36%) were called active. Another 18% or so got no clear call; they are omitted. No stated cut-off is given here; in the data, active means normalized growth mostly below about 0.91 (no sharp cut-off); inconclusive means no clear call, values can overlap the other calls; inactive means mostly above about 0.92. The list shows a part of the results.
Log the outcome using a class from active, inactive

# molecule, classification
data = [
    ("O=C(O)/C(=C/c1c(C(=O)O)[nH]c2cc(Cl)cc(Cl)c12)c1ccccc1", "inactive"),
    ("CCc1cccc2c3c([nH]c12)C(CC)(CC(=O)O)OCC3 (stereo not drawn)", "inactive"),
    ("Cn1c(=O)c2[nH]c(-c3ccccc3)nc2n(C)c1=O", "inactive"),
    ("COc1ccc(CCN(C)CCCC(C#N)(c2cc(OC)c(OC)c(OC)c2)C(C)C)cc1OC (stereo not drawn)", "inactive"),
    ("C[C@]12Cc3cn4c(nc3C=C1CCC1C2CC[C@@]2(C)[C@H]1CC[C@@]2(O)C#N)nc1ccccc14 (stereo partly drawn)", "active"),
    ("CN1C(=O)CCS(=O)(=O)C1c1ccc(Cl)cc1 (stereo not drawn)", "inactive"),
]

input: Check the results log: what was the call for C[C@]12CCC(=O)C=C1CC[C@@H]1[C@@H]2[C@@H](O)C[C@@]2(C)[C@H]1CC[C@]2(O)C(=O)CO ?
output: inactive

input: Check the results log: what was the call for O=C(Cc1ccc(Cl)c(Cl)c1)OCCN1CCCC1 ?
output: inactive

input: Check the results log: what was the call for NC1CC1c1ccccc1 (stereo not drawn) ?
output: inactive

input: Check the results log: what was the call for NCCc1c[nH]c2ccccc12 ?
output: inactive

input: Check the results log: what was the call for Cc1ccc(=O)n(-c2ccccc2)c1 ?
output: inactive

input: Check the results log: what was the call for O=C(O)c1cc(=O)c2c(Cl)cc(Cl)cc2[nH]1 ?
output: inactive

input: Check the results log: what was the call for COc1ccccc1N1CCN(CC(O)COc2cccc3ccccc23)CC1 (stereo not drawn) ?
output: inactive

====

# test-protocol: chemical genetic growth profiling, strain panel (AID 1159580);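 note: tested at 20 µM; growth read once vehicle control cultures reached saturation at 30 °C; 1 = growth at the plate median or of vehicle wells; lower values mean less growth of the strain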
# measurement-setup: S. cerevisiae deletion strains, growth OD, locus YGL227W, strain vid30
Hit rate of the full screen: of about 5,500 compounds, about 2,000 (36%) were called active. Another 18% or so got no clear call; they are omitted. Rule as the data show it: active = normalized growth mostly below about 0.91 (no sharp cut-off); inconclusive = no clear call, values can overlap the other calls; inactive = mostly above about 0.92. The list shows a part of the results.
Log the outcome using a class from active, inactive

# compound, classification
rows = [
    ("CCNc1nc(Cl)nc(NCC)n1", "inactive"),
    ("OCc1c[nH]c2ccccc12", "inactive"),
    ("COc1ccc2c(c1)[C@]13CCCC[C@H]1[C@H](C2)N(C)CC3", "inactive"),
    ("CC(=O)CC1CCCCN1 (centres undefined)", "inactive"),
    ("CC1=NN(c2ccccc2)C(=O)C1", "inactive"),
]

input: Check the results log: what was the call for CC(=O)O[C@H]1CC[C@]2(C)C3CC(=O)[C@]4(C)C(C(C)=O)=CCC4C3CC[C@H]2C1 (some centres undefined) ?
output: inactive
